METHOD_DESCRIPTION: The drug is tested on Z-004 corresponding to metagenome with ENA study accession number: PRJEB37062 and ENA sample accession number: ERS12561804 for biotransformation under anaerobic condition. The drug concentrations were measured over 9 timepoints collected between 0 and 24 hours of incubation by liquid-chromatography-coupled mass spectrometry (LC–MS); further: call rule not given here
RUN_CONDITIONS: 2 µM
PARAMETER_MEASURED: Bacterial Biotransformation

CN1CCOC(c2ccccc2)c2ccccc2C1 (centres undefined) [NEFOPAM] : Compound NOT metabolized
NS(=O)(=O)c1cc2c(cc1Cl)N=C(CSCc1ccccc1)NS2(=O)=O [BENZTHIAZIDE] : Compound NOT metabolized
CC(C)(C)NC[C@H](O)COc1ccccc1C1CCCC1.CC(C)(C)NC[C@H](O)COc1ccccc1C1CCCC1.O=S(=O)(O)O [PENBUTOLOL SULFATE] : Compound metabolized
O=C(O)COCCN1CCN(C(c2ccccc2)c2ccc(Cl)cc2)CC1 (centres undefined) [CETIRIZINE] : Compound metabolized
O=C1[C@H](CC[C@H](O)c2ccc(F)cc2)[C@@H](c2ccc(O)cc2)N1c1ccc(F)cc1 [EZETIMIBE] : Compound NOT metabolized
COCCc1ccc(OCC(O)CNC(C)C)cc1.COCCc1ccc(OCC(O)CNC(C)C)cc1.O=C(O)C(O)C(O)C(=O)O (centres undefined) [METOPROLOL TARTRATE] : Compound NOT metabolized
CN1CC(=O)N2[C@H](c3ccc4c(c3)OCO4)c3[nH]c4ccccc4c3C[C@@H]2C1=O : Compound metabolized
CCN(CC)CC#CCOC(=O)C(O)(c1ccccc1)C1CCCCC1.Cl (centres undefined) [OXYBUTYNIN CHLORIDE] : Compound metabolized

Next up:
Entry CO[C@]12C[C@@H](COC(=O)c3cncc(Br)c3)CN(C)[C@@H]1Cc1cn(C)c3cccc2c13 [NICERGOLINE] — recorded Bacterial Biotransformation = Compound metabolized

====

METHOD_DESCRIPTION: The drug is tested on WLS-082 corresponding to human gut metagenome with ENA study accession number: PRJEB37062 and ENA sample accession number: ERS12561751 for biotransformation under anaerobic condition. The drug concentrations were measured over 9 timepoints collected between 0 and 24 hours of incubation by liquid-chromatography-coupled mass spectrometry (LC–MS)
RUN_CONDITIONS: 2 µM
PARAMETER_MEASURED: Bacterial Biotransformation

Known Bacterial Biotransformation results, listed for orientation:
COc1ccccc1OCC(O)CN1CCN(CC(=O)Nc2c(C)cccc2C)CC1 (configuration not stated) [RANOLAZINE] : Compound NOT metabolized
CN1CCc2c(c3ccccc3n2Cc2ccccc2)C1.CN1CCc2c(c3ccccc3n2Cc2ccccc2)C1.O=S(=O)(O)c1cccc2c(S(=O)(=O)O)cccc12 : Compound NOT metabolized
CCCCCOC(=O)Nc1nc(=O)n([C@@H]2O[C@H](C)[C@@H](O)[C@H]2O)cc1F [CAPECITABINE] : Compound metabolized
CC[C@@H](CO)NC(=O)[C@@H]1C=C2c3cccc4c3c(cn4C)C[C@H]2N(C)C1.O=C(O)/C=C\C(=O)O [METHYSERGIDE MALEATE] : Compound NOT metabolized

Entry CC(C)NCC(O)c1ccc(NS(C)(=O)=O)cc1 (configuration not stated) [SOTALOL] — recorded Bacterial Biotransformation = Compound NOT metabolized

Entry CN1CCC(=C2c3ccccc3CCc3cccnc32)CC1.O=C(O)/C=C\C(=O)O.O=C(O)/C=C\C(=O)O [AZATADINE MALEATE] — recorded Bacterial Biotransformation = Compound NOT metabolized

Entry CN1CCN(CC/C=C2/c3ccccc3Sc3ccc(S(=O)(=O)N(C)C)cc32)CC1 [THIOTHIXENE] — recorded Bacterial Biotransformation = Compound metabolized
